Recorded values, source patent US20260285853A1.

Task for the reader: assign each of the following compounds its reported IC50.
System: MYB mRNA
Assay: Gene panel canonical junction qPCR assay, decrease in CJ mRNA, Table 3
Assay type: cell-based
Settings: decrease in CJ mRNA levels, canonical junction qPCR, gene panel

Recorded IC50 for COc1nc2c(C(=O)Nc3cc(F)c4nn(C)cc4c3)ccc(N3C[C@@H](C)N[C@H](C)C3)c2s1 , please?
< 100 nM

Recorded IC50 for COc1cc2c(N3CCC(NC4CC4)CC3)ccc(C(=O)Nc3cc(F)c4nc(C)cn4c3)n2n1 , please?
< 100 nM

Recorded IC50 for COc1nc2c(C(=O)Nc3cc(CNS(C)(=O)=O)c4nn(C)cc4c3)ccc(N3C[C@H](C)N[C@@H](C)C3)c2s1 [Compound 731, 2,2,2-trifluoroacetate] , please?
100 to 1000 nM

Recorded IC50 for COCCOCc1cc2c(N3CCC(NC4CC4)CC3)ccc(C(=O)Nc3cc(F)c4nc(C)cn4c3)n2n1 , please?
< 100 nM

Recorded IC50 for CCNC1C(C)CN(c2ccc(C(=O)Nc3cc4cn(C)nc4cc3OC)c3nn(C)cc23)CC1C (centres unmarked) , please?
1000 to 10000 nM

---

Task for the reader: assign each of the following compounds its reported pIC50.
Test system: HTT mRNA
Experiment: Gene panel canonical junction qPCR assay, decrease in CJ mRNA, Table 3
Assay type: cell-based
Conditions: decrease in CJ mRNA levels, canonical junction qPCR, gene panel
Experimental: Compounds described herein were used to modulate RNA transcript abundance in cells. The expression of a target mRNA was measured by detecting the formation of an exon-exon junction in the canonical transcript (CJ). A compound mediated exon-inclusion event was detected by observing an increase in formation of a new junction with an alternative exon (AJ). Real-time qPCR assays were used to detect these splicing switches and interrogate the potency of various compounds towards different target genes. […]
pIC50: −log10 of the molar value.

What measured pIC50 is associated with Cc1cn2cc(NC(=O)c3ccc(N4CCC(NC5CC5)CC4)c4cn(C)nc34)nc2c(CNS(=O)(=O)CCO)n1 on HTT mRNA?
< 5.00

What measured pIC50 is associated with Cn1cc2cc(NC(=O)c3ccc(N4CCC(NC5CC5)CC4)c4cn(C)nc34)cc(CNc3ncccn3)c2n1 on HTT mRNA?
5.00 to 6.00

What measured pIC50 is associated with CCNC1CCN(c2ccc(C(=O)Nc3cn4cc(C)nc(C)c4n3)c3nc(C)cn23)CC1 on HTT mRNA?
< 5.00

What measured pIC50 is associated with COc1cc2nn(C)cc2cc1NC(=O)c1ccc(N2CCC(NC3CC3)CC2)c2cc(C)nn12 on HTT mRNA?
5.00 to 6.00

What measured pIC50 is associated with Cc1cn2cc(NC(=O)c3ccc(N4CCC(NC5CC5)CC4)n4nc(C)nc34)cc(F)c2n1 on HTT mRNA?
6.00 to 7.00

What measured pIC50 is associated with Cc1nc2c(F)cc(NC(=O)c3ccc(N4CCC(NC5CC5)CC4)c4cn(C)nc34)cn2n1 on HTT mRNA?
5.00 to 6.00

What measured pIC50 is associated with COc1cc2c(N3CCC(NC4CC4)CC3)ccc(C(=O)Nc3cc(C)c4nc(C)cn4n3)n2n1 on HTT mRNA?
5.00 to 6.00

What measured pIC50 is associated with Cc1cn2cc(NC(=O)c3ccc(N4CC5CCC(C4)N5)c4cn(C)nc34)nc2c(CNS(C)(=O)=O)n1 on HTT mRNA?
5.00 to 6.00

What measured pIC50 is associated with CCNC1CCN(c2ccc(C(=O)Nc3cc(CCC(=O)N(C)C)c4nn(C)cc4c3)c3nn(C)cc23)CC1 on HTT mRNA?
< 5.00

What measured pIC50 is associated with COc1cc2c(N3CCC(NC4CC4)CC3)ccc(C(=O)Nc3cc4cn(C)nc4cc3OC)n2n1 on HTT mRNA?
6.00 to 7.00

What measured pIC50 is associated with COc1cc2c(N3CCC(NC4CC4)CC3)ccc(C(=O)Nc3cn4cc(C)nc4c(OC)n3)n2n1 on HTT mRNA?
> 7.00

What measured pIC50 is associated with COc1nc2c(N3C[C@H](C)N[C@@H](C)C3)ccc(C(=O)Nc3cc(F)c4nn(C)cc4c3)c2o1 on HTT mRNA?
< 5.00

What measured pIC50 is associated with COCc1cc2c(N3CCC(NC4CC4)CC3)ccc(C(=O)Nc3cc(F)c4nc(C)cn4c3)n2n1 on HTT mRNA?
6.00 to 7.00

What measured pIC50 is associated with Cc1cn2cc(NC(=O)c3ccc(N4CCC(NC5CC5)CC4)c4cn(C)nc34)nc2c(CNC(C)C(F)(F)F)n1 (stereo not shown) on HTT mRNA?
< 5.00

What measured pIC50 is associated with Cc1cn2cc(NC(=O)c3cc(F)c(N4CCC(NC5CC5)CC4)c4cn(C)nc34)cc(F)c2n1 on HTT mRNA?
< 5.00

What measured pIC50 is associated with Cc1cn2cc(NC(=O)c3ccc(N4CCC(NC5CC5)CC4)c4cc(CO)nn34)nc2c(C)n1 on HTT mRNA?
5.00 to 6.00

What measured pIC50 is associated with COc1nc(NC(=O)c2c(F)cc(N3CCC(NC4CC4)CC3)c3nc(C)sc23)cn2cc(C)nc12 on HTT mRNA?
5.00 to 6.00

What measured pIC50 is associated with C[C@H]1CN(c2ccc(C(=O)Nc3cc(F)c4nn(C)cc4c3)c3sc(OCc4ccnn4C)nc23)C[C@H](C)N1 on HTT mRNA?
< 5.00

What measured pIC50 is associated with COc1nc2c(C(=O)Nc3cc(F)c4nn(C)cc4c3)ccc(N3CCN(C)CC3)c2s1 on HTT mRNA?
6.00 to 7.00

What measured pIC50 is associated with COc1nc2c(C(=O)Nc3cc4cc(C)nn4cc3OC)ccc(N3C[C@H](C)N[C@@H](C)C3)c2s1 [Compound 787, 2,2,2-trifluoroacetate] on HTT mRNA?
< 5.00

What measured pIC50 is associated with COc1c(NC(=O)c2c(F)cc(N3CCC(NC4CC4)CC3)c3nc(C)sc23)cn2cc(C)nc2c1F on HTT mRNA?
5.00 to 6.00

What measured pIC50 is associated with COc1c(NC(=O)c2cc(F)c(N3CCC(NC4CC4)CC3)c3cn(C)nc23)cn2cc(C)nc2c1F on HTT mRNA?
5.00 to 6.00

---

Tested on: HTT mRNA
Assay: Splicing RT-qPCR assay (THP), Table 2A
Assay type: cell-based
Conditions: Table 2A (THP), CJ mRNA decrease, read-out: HTT CJ (decrease in canonical junction mRNA, IC50)
Structures can show the parent of a compound that is named as a salt.
endpointName: IC50

Recorded IC50 for Cc1cn2cc(NC(=O)c3ccc(N4CCN(C5CNC5)CC4)c4cn(C)nc34)nc2c(C)n1 , please?
0.1 to 1 µM

Recorded IC50 for Cc1cn2cc(NC(=O)c3c(F)cc(N4CCC(NC5CC5)CC4)c4cn(C)nc34)cc(Oc3cccnn3)c2n1 , please?
1 to 10 µM

Recorded IC50 for CCNC1CCN(c2cc(F)c(C(=O)Nc3nc4c(C)nc(C)cn4n3)c3nn(C)cc23)CC1 [Compound 301, 2,2,2-trifluoroacetate] , please?
1 to 10 µM

Recorded IC50 for COc1ncccc1NC(=O)c1c(F)cc(N2CCC(NC3CC3)CC2)c2cn(C)nc12 , please?
> 10 µM

Recorded IC50 for CCNC1CCN(c2ccc(C(=O)Nc3cc(F)c4cnccc4c3)c3nn(C)cc23)CC1 , please?
> 10 µM

Recorded IC50 for CCNC1CCN(c2ccc(C(=O)Nc3cc(CC(=O)NC)c4nc(C)cn4c3)c3nn(C)cc23)CC1 [Compound 341, trifluoroacetate] , please?
1 to 10 µM

Recorded IC50 for CCNC1CCN(c2ccc(C(=O)Nc3cc(Oc4ccccc4C#N)c4nc(C)cn4c3)c3nn(C)cc23)CC1 , please?
> 10 µM

Recorded IC50 for COc1cc2nc(CF)cn2cc1NC(=O)c1c(F)cc(N2CCC(NC3CC3)CC2)c2cn(C)nc12 , please?
> 10 µM

Recorded IC50 for CCNC1CCN(c2cc(OC)c(C(=O)Nc3cn4cc(C)nc(C)c4n3)c3nn(C)cc23)CC1 , please?
> 10 µM

Recorded IC50 for CCNC1CCN(c2ccc(C(=O)Nc3cn(C)c(=O)cc3OC)c3nn(C)cc23)CC1 , please?
> 10 µM

Recorded IC50 for CNCC1CCN(c2ccc(C(=O)Nc3cn4cc(C)nc(C)c4n3)c3nn(C)cc23)C1 (stereo not drawn) , please?
0.1 to 1 µM

Recorded IC50 for CCNC1CCN(c2ccc(C(=O)Nc3ccn(-c4ccncn4)n3)c3nn(C)cc23)CC1 [Compound 363, trifluoroacetate] , please?
> 10 µM

Recorded IC50 for COc1cc2nn(C)cc2cc1NC(=O)c1c(Cl)cc(N2CCC(NC3CC3)CC2)c2cn(C)nc12 , please?
> 10 µM

Recorded IC50 for CNC1(C)CCN(c2cc(F)c(C(=O)Nc3cc(F)c4nc(C)cn4c3)c3nn(C)cc23)CC1 , please?
< 0.1 µM

Recorded IC50 for CCNC1CCN(c2ccc(C(=O)Nc3cn4cc(C)nc(C)c4n3)c3nn(C)cc23)CC1 , please?
1 to 10 µM

Recorded IC50 for CN[C@@H]1CCN(c2ccc(C(=O)Nc3cc(F)c4nc(C)cn4c3)c3nn(C)cc23)[C@@H]1C (single isomer, unassigned) , please?
0.1 to 1 µM

Recorded IC50 for Cc1cn2cc(NC(=O)c3c(F)cc(N4CCC(N(C)C)CC4)c4cn(C)nc34)nc2c(C)n1 , please?
1 to 10 µM

Recorded IC50 for Cc1cn2cc(NC(=O)c3ccc(N4CCC(NC5CC5)CC4)c4cn(C)nc34)nc2c(-c2ccn[nH]2)n1 [Compound 487, trifluoroacetate] , please?
1 to 10 µM

Recorded IC50 for Cc1cn2cc(NC(=O)c3ccc(N4CCC(NC5(CF)CC5)CC4)c4cn(C)nc34)cc(F)c2n1 , please?
1 to 10 µM

Recorded IC50 for Cc1cn2cc(NC(=O)c3c(F)cc(N4CCC(NC5CC5)CC4)c4cn(C)nc34)cc(Oc3ccnnc3)c2n1 , please?
> 10 µM

Recorded IC50 for COc1cc2nn(C)cc2cc1NC(=O)c1ccc(NC2CCCNCC2)c2cn(C)nc12 (stereo not drawn) , please?
1 to 10 µM

Recorded IC50 for CCNC1CCN(c2cc(F)c(C(=O)Nc3cn4cc(C)nc(CC)c4n3)c3nn(C)cc23)CC1 , please?
> 10 µM

Recorded IC50 for COc1cc2nn(C)cc2cc1NC(=O)c1ccc(N2CCC3(CCNC3)C2)c2cn(C)nc12 (stereo not drawn) , please?
> 10 µM

Recorded IC50 for COc1cc2nn(C)cc2cc1NC(=O)c1c(F)cc(N2CC3(CNC3)C2)c2cn(C)nc12 , please?
> 10 µM
